Tested on: NF-κB pathway (SEAP) in THP1-Dual cells
ASSAY: THP-1 Dual cell SEAP assay (L18-MDP stimulated)
Type: cell-based
EXPERIMENTAL CONTEXT: Homo sapiens, THP1-Dual, read-out: NFkB THP1 IC50
pIC50: −log10 of the molar value.
READOUT: pIC50

# COMPOUND, ASSAY SYSTEM, pIC50
measured = [
    ("CNC(=O)c1cn2c(-c3cc(F)nc(NCCCO)c3)cnc2cc1OC", "NF-κB pathway (SEAP) in THP1-Dual cells", "> 7.30"),
    ("CCOc1c(N)cc(-c2cnc3cc(OC)c(S(=O)(=O)C(C)(C)C)cn23)cc1F", "NF-κB pathway (SEAP) in THP1-Dual cells", "< 6.00"),
    ("COc1cn2ncc(-c3cc(C#N)c(N)nc3F)c2cc1S(=O)(=O)C(C)(C)C", "NF-κB pathway (SEAP) in THP1-Dual cells", "< 6.00"),
    ("COc1cc2ncc(-c3cc(F)nc(NCc4cc[nH]c(=O)c4)c3)n2cc1S(=O)(=O)C(C)(C)C", "NF-κB pathway (SEAP) in THP1-Dual cells", "6.60 to 7.30"),
    ("CNc1cc(-c2cnc3cc(OC)c(S(=O)(=O)C(C)(C)C)cn23)cc(F)n1", "NF-κB pathway (SEAP) in THP1-Dual cells", "> 7.30"),
]

Lab note: need pIC50 with NF-κB pathway (SEAP) in THP1-Dual cells for entry COc1cc2ncc(-c3cc(Cl)nc(Cl)c3)n2cc1S(=O)(=O)C(C)(C)C , please look it up.
< 6.00

Follow-up entry: CCCS(=O)(=O)N(C)c1cccc(-c2cnc3cc(OC)c(S(=O)(=O)C(C)(C)C)cn23)c1
< 6.00

Follow-up entry: CCCS(=O)(=O)N(C)c1cc(-c2cnc3cc(OC)c(S(=O)(=O)C(C)(C)C)cn23)cc(OC)c1C
< 6.00
